System: SNB-75 CNS
Test: NCI-60 one-dose screen, 48 h
Details: 10 µM unless noted
This is part of a sample that, as a whole, favours compounds with a hit. Of some 83,000 tested, about 20% had one in any assay. Activity calls are given as the source filed them. The calls were made as follows: active = growth percent below 10; inactive = the rest.
Classes to choose from: active, inactive

Hello, I am checking results. What call was entered for COC(=O)c1cc(Nc2ccc(O)c3c2C(=O)c2c([N+](=O)[O-])ccc(O)c2C3=O)cc(C(=O)OC)c1 ? inactive

Hello, I am checking results. What call was entered for CCCCCCCCCCC(C[N+](C)(C)C/C=C/c1ccccc1)C(O)c1ccccc1 (stereo unspecified) ? active

Hello, I am checking results. What call was entered for BrCCCOc1ccc(Oc2ccc(OCCCBr)cc2)cc1 ? inactive

Hello, I am checking results. What call was entered for C=C(C)C(C(=O)OCC)(C(=O)OCC)C(C)C ? inactive

Hello, I am checking results. What call was entered for CCCCCCC(C)N(CC(C)(C)O)C(=O)c1ccc([N+](=O)[O-])cc1 (stereo unspecified) ? inactive

Hello, I am checking results. What call was entered for CC1(C)CC(=O)C2=C(C1)Oc1nc(N)c(C#N)c(N)c1C2c1ccc(F)cc1 (stereo unspecified) ? inactive

Hello, I am checking results. What call was entered for CC(O)CCC(C)[N+](=O)[O-] (stereo unspecified) ? inactive

Hello, I am checking results. What call was entered for CCNc1nnc(COc2ccc(CNC(=O)CCCC/C=C/C(C)C)cc2OC)o1 ? inactive

Hello, I am checking results. What call was entered for Cc1ccc([C@@H]2C[C@H](O)Cc3ccccc3N2)s1 ? inactive

Hello, I am checking results. What call was entered for COc1ccccc1C(=O)Nc1cccc(-c2cc(=O)c3c(OC)c(OC)c(OC)cc3o2)c1 ? inactive

Hello, I am checking results. What call was entered for COC(=O)C1CC(=O)N(C(=O)Nc2ccc(Cl)cc2Cl)C1 (stereo unspecified) ? inactive

---

System: SF-268 CNS
Assay: NCI-60 one-dose screen, 48 h
Details: 10 µM unless noted
Compounds without any hit were thinned out: in the full panel of roughly 83,000, 20% have a hit. Calls of active or inactive are those of the source. How the source made its calls: active means growth percent below 10; inactive means the rest.
Classes to choose from: TRUE (active), FALSE (inactive)

Hello, I am checking results. What call was entered for CCOP1(=O)CC(C)=C(Cl)C(P(=O)(O)O)C1 (stereo not given) ? FALSE

Hello, I am checking results. What call was entered for COc1cccc2c1nc1cccc(OC)c1[n+]2[O-] ? FALSE

Hello, I am checking results. What call was entered for COC(=O)c1ccc2[nH]c(O)c(C(=Nc3ccc(N(C)C(=O)CN4CCN(C)CC4)cc3)c3ccc(C)cc3)c2c1 ? TRUE

Hello, I am checking results. What call was entered for COC(=O)[C@H](Cc1cn(C)cn1)NC(=O)[C@H](CC(=O)OCc1ccccc1)NC(=O)Nc1cc(C(F)(F)F)cc(C(F)(F)F)c1 ? TRUE

Hello, I am checking results. What call was entered for CC(C)(C)c1cc(C[P+](c2ccc(Cl)cc2)(c2ccc(Cl)cc2)c2ccc(Cl)cc2)cc(C(C)(C)C)c1O ? FALSE

Hello, I am checking results. What call was entered for CCCCCCNc1nc(N2CCOCC2)c2[nH]c(NCCCCCC)nc2n1 ? TRUE

Hello, I am checking results. What call was entered for CC(O)c1cc[cH-]c1.[Fe+2].c1cc[cH-]c1 (stereo not given) ? FALSE

Hello, I am checking results. What call was entered for COc1ccc(/C(=C(\c2ccccc2)[N+](=O)[O-])c2ccc(OCCN3CCCC3)cc2)cc1 ? FALSE

Hello, I am checking results. What call was entered for CC[n+]1c(C)ccc2cc(C)ccc21 ? FALSE

Hello, I am checking results. What call was entered for CCCCCCNC(=O)Oc1ccc(/C(=C(/C)Cc2ccc(OC)cc2)c2ccc(OCCN3CCCCC3)cc2)cc1 ? FALSE

Hello, I am checking results. What call was entered for Oc1ccc(N=Nc2ccc(N=Nc3ccccc3)cc2)cc1 ? FALSE

Hello, I am checking results. What call was entered for COc1cc(NC(=O)CSc2nc3ccc(Cl)cc3c(=O)n2-c2ccc(F)cc2)cc(OC)c1OC ? FALSE

Hello, I am checking results. What call was entered for Cc1ccc(S(=O)(=O)NC(CCC(=O)Nc2ccccc2)C(=O)Nc2ccccc2)cc1 (stereo not given) ? TRUE

Hello, I am checking results. What call was entered for COc1ccc(-c2nc(N)n(C(=S)Nc3ccccc3)n2)cc1 ? FALSE

Hello, I am checking results. What call was entered for CC1(C)NC(=S)NC1=O ? FALSE

Hello, I am checking results. What call was entered for COC(=O)C(N)CC(C)C (stereo not given) ? FALSE

Hello, I am checking results. What call was entered for COc1cc2c(c3c1c(=O)c1cccc(F)c1n3C)C=CC(C)(C)O2 ? FALSE

Hello, I am checking results. What call was entered for CCCC(=O)NNc1[nH]c(-c2ccc(OC)cc2)cc1C(=O)OCC ? FALSE

Hello, I am checking results. What call was entered for COc1cccc2c1n([O-])c1cccc(OC)c1[n+]2=O ? FALSE

Hello, I am checking results. What call was entered for COc1ccc(/C=C(/C(=O)N2CCCCC2)c2cc(OC)c(OC)c(OC)c2)cc1 ? FALSE

Hello, I am checking results. What call was entered for COc1ccc(-c2nc(SCC(C)C)nc(Nc3ccc(C)cc3)c2C#N)cc1 ? FALSE

Hello, I am checking results. What call was entered for CC(=O)N(N=O)c1ccc([N+](=O)[O-])cc1Cl ? FALSE

Hello, I am checking results. What call was entered for COc1cc(Cn2ccc3c2-c2oncc2CC3)cc(OC)c1 ? FALSE

Hello, I am checking results. What call was entered for CCCC(C)c1cc(Cc2cc(Cl)cc(Cl)c2O)c(O)c(Cc2cc(Cl)cc(Cl)c2O)c1 (stereo not given) ? FALSE

Hello, I am checking results. What call was entered for O=P(OCCCl)(OCCCl)C(O)c1ccccc1Cl (stereo not given) ? FALSE

Hello, I am checking results. What call was entered for CCOC(=O)c1sc(NS(=O)(=O)c2ccccc2)nc1C ? FALSE

Hello, I am checking results. What call was entered for CCCCCCCCCCCCCCCCNC(=S)N/N=C/c1ccc(O)cc1O ? FALSE

Hello, I am checking results. What call was entered for COc1ccc(CNCCCN2C(=O)c3ccc4c5c(ccc(c35)C2=O)C(=O)N(CCCNCc2ccc(OC)c(OC)c2OC)C4=O)c(OC)c1OC ? TRUE

Hello, I am checking results. What call was entered for CC(=O)O.[In] ? FALSE

Hello, I am checking results. What call was entered for COc1ccc(Cn2cc3c(c2-c2ccc(O)cc2)CCc2cnoc2-3)cc1 ? FALSE

Hello, I am checking results. What call was entered for CCC1(CC)C(OC)NC(Br)=C(C#N)C1(C#N)C(N)=O (stereo not given) ? FALSE

Hello, I am checking results. What call was entered for Nc1nc2cc(O)ccc2n2cc3c(F)cccc3c12 ? FALSE

Hello, I am checking results. What call was entered for C=CCSc1nnc(COc2ccc3c(C)c(Cc4ccccc4)c(=O)oc3c2C)o1 ? FALSE

Hello, I am checking results. What call was entered for CSc1nc(N)n2nccc2n1 ? FALSE

Hello, I am checking results. What call was entered for CC(=O)OC1/C=C\CC/C=C\C1 (stereo not given) ? FALSE

Hello, I am checking results. What call was entered for COc1cc(-c2c3c(cn2CCN2CCCCC2)-c2oncc2CC3)cc(OC)c1OC ? FALSE

Hello, I am checking results. What call was entered for C=CCN(C)C ? FALSE

Hello, I am checking results. What call was entered for CCCC(=O)NNc1[nH]c(-c2cc(OC)c(OC)c(OC)c2)cc1C(=O)OCC ? FALSE

Hello, I am checking results. What call was entered for O=C(NC(=S)NNC(=S)NNc1ccccc1)c1ccccc1 ? FALSE

Hello, I am checking results. What call was entered for S=C(N/N=C/c1cc(Cl)cc(Cl)c1)NC12CC3CC(CC(C3)C1)C2 ? FALSE

Hello, I am checking results. What call was entered for O=C1c2ccccc2CCc2ccccc21 ? FALSE

Hello, I am checking results. What call was entered for Clc1ccc(N/N=C/c2ccccn2)nc1 ? TRUE

Hello, I am checking results. What call was entered for CCC(CCCN1C(=O)c2ccccc2C1=O)Nc1cc(OC)cc2c(C)ccnc12 (stereo not given) ? FALSE

Hello, I am checking results. What call was entered for O=C1CCNC1 ? FALSE

Hello, I am checking results. What call was entered for COC(=O)/C=C/c1cc(O)c2oc(-c3ccc(O)c(O)c3)c(C(=O)OC)c2c1 ? FALSE
